target: DNA repair nuclease/redox regulator APEX1 (Homo sapiens) (UniProt P27695); assay: qHTS Validation Assay for Inhibitors of the Human Apurinic/apyrimidinic Endonuclease 1 (APE1) (AID 1705;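 note: TAMRA fluorescence gain over two minutes as APE1 cuts a quenched THF abasic duplex; % is set by controls: 0 for no effect and ±100 for the full control effect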); conditions: purified APE1 endonuclease activity, fluorescence, titration; series mostly up to 57.1 µM
Sequence (P27695 whole entry, looked up): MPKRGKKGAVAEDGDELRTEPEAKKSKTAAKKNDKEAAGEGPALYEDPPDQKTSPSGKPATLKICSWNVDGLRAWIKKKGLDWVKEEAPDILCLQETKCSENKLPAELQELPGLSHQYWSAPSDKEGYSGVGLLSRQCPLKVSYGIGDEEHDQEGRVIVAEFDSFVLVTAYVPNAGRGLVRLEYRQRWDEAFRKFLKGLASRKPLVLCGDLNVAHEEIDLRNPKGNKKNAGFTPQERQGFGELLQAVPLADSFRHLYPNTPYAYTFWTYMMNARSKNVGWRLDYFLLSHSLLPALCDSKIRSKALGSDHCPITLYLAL
Inconclusive results are not listed. Calls of active or inactive are those of the source. Calls come from the whole dose curve; as a rule, active = well fitted inhibition curve with a large enough effect; inconclusive = small, poorly fitted or top-dose-only effect; inactive = flat fitted curve, though single readings scatter.
Quantity measured: outcome

NC(=O)c1cnccn1; inactive
N[C@@H]1CONC1=O; inactive
Cc1[nH]c(=O)c(C#N)cc1-c1ccncc1; inactive
CC(=O)Oc1ccccc1C(=O)O; inactive
CCCC(CCC)C(=O)O; inactive

Assign outcome to the following record: NNCCc1ccccc1
inactive

Please report outcome for the following molecule: NS(=O)(=O)c1cc2c(cc1Cl)NC=NS2(=O)=O
inactive

====

assay: Cell Proliferation Assay against the HBL1 Cell Line (AID 651646); settings: HBL1 DLBCL cells; at 46.1 µM (top of the series) unless noted;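 note: cells exposed to compound for 48 h before reading; 100% = DMSO and 0% = 9.2 µM bortezomib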
Quantity measured: viability, percent of control
The reply should read as a number followed by its unit.

COc1cc(F)c(F)c(Nc2ccc(I)cc2F)c1NS(=O)(=O)C1(C[C@H](O)CO)CC1; 62.4%
S=C(NCc1ccc2c(c1)OCO2)N1CCN(c2ncnc3c2oc2ccccc23)CC1; 40.5%
COc1ccccc1-c1cccc(-c2c(O)c3cc(C#N)c(Cl)cc3[nH]c2=O)c1; 80.1%
CCOc1ccc(Cc2cc([C@@H]3O[C@H](CO)[C@@H](O)[C@H](O)[C@@H]3O)ccc2Cl)cc1; 94.2%
CCN(c1ccccc1)c1cc(NC)[n+](C)c(C)n1; 87.8%

Tell us which viability, percent of control value is on record for Nc1ncnc2nc(-c3ccc(N4CCOCC4)nc3)cc(-c3cccc(Br)c3)c12
66.5%

====

target: Phospholipid hydroperoxide glutathione peroxidase GPX4 (Homo sapiens); assay: Primary qHTS Assay for Inhibitors of Recombinant Selenoprotein Glutathione Peroxidase 4 (GPX4) (AID 1845192); conditions: recombinant GPX4, GR-coupled NADPH fluorescence, 15 min; series mostly up to 50 µM; note: nearly all actives have a fitted effect of over 65% in size
Records with an inconclusive call do not appear. Activity calls are given as the source filed them. The call rests on the fitted dose curve; in most records, active means well fitted inhibition curve with a large enough effect; inconclusive means small, poorly fitted or top-dose-only effect; inactive means flat fitted curve, though single readings scatter.
Quantity measured: outcome

Known outcome results, listed for orientation:
CCCn1c(=O)c2[nH]c(C34CC5CC3C[C@@H](C5)C4)nc2n(CCC)c1=O; inactive
O=C(Nc1nc2ccccc2n1CCN1CCOCC1)c1cccc([N+](=O)[O-])c1; inactive
CCOc1cc(C(=O)Nc2ccc(Cl)c(-c3nc4ccccc4[nH]3)c2)cc(OCC)c1OCC; inactive
O=C(NOC[C@H](O)CO)c1ccc(F)c(F)c1Nc1ccc(I)cc1F; inactive
O=C1CCC(N2C(=O)c3ccccc3C2=O)C(=O)N1 (stereo unspecified); inactive

# return recorded outcome for entry Cc1[nH]c(=O)c(C#N)cc1-c1ccc2nccn2c1
inactive

Check the records and state outcome for CCN(CC)CCCC(C)Nc1ccnc2cc(Cl)ccc12 (stereo unspecified)
inactive

Using known records, supply outcome for Cc1oncc1C(=O)Nc1ccc(C(F)(F)F)cc1
inactive

====

tested on: CRL-7250; experiment: Cytotoxic Profiling of Annotated Libraries Using Quantitative High-Throughput Screening (AID 1296008); details: Five cell lines viability, CellTiter-Glo ATP luminescence, 48-72 h; note: nearly all actives have a fitted effect of over 60% in size
Records with an inconclusive call do not appear. Activity calls are given as the source filed them. Calls come from the whole dose curve; as a rule, active = well fitted inhibition curve with a large enough effect; inconclusive = small, poorly fitted or top-dose-only effect; inactive = flat fitted curve, though single readings scatter.
Write down the outcome that applies. Available outcomes: 1 (yes) (active), 0 (no) (inactive)

Cn1c(=O)c(F)c(Nc2ccc(I)cc2F)c2c(=O)n(C[C@@H](O)CO)cnc21; 1 (yes)
O=NN(CCCl)C(=O)NCCCl; 0 (no)
Cc1[nH]c(=O)c(C#N)cc1-c1ccncc1; 0 (no)

What call does the record list for O=C(C=Cc1ccc(/C=C/C(=O)Nc2ccc(C3=NCCN3)cc2)cc1)Nc1ccc(C2=NCCN2)cc1 ?
0 (no)

// return assay outcome for C[C@]12CC[C@H](O)CC1=CC[C@@H]1[C@H]2CC[C@]2(C)C(c3cccnc3)=CC[C@H]12
0 (no)

Which outcome was assigned to COc1ccc(-c2c(-c3ccc(O)cc3O)n[nH]c2C)cc1 in this test?
1 (yes)

How did this test come out for Cc1ccccc1C(OCCN(C)C)c1ccccc1 (stereo unspecified) ?
0 (no)

Identify the outcome logged in this assay for the molecule shown: CC(c1cc2ccccc2s1)N(O)C(N)=O (stereo unspecified)
0 (no)

Kindly provide the recorded test outcome for the following molecule: COc1ccc(CCN2CCN(CCCc3ccccc3)CC2)cc1OC
0 (no)

Recorded call for COc1ccc(C2=N[C@H](c3ccc(Cl)cc3)[C@H](c3ccc(Cl)cc3)N2C(=O)N2CCNC(=O)C2)c(OC(C)C)c1 ?
1 (yes)

Recorded test outcome, item CC(C[N+](C)(C)C)OC(N)=O (stereo unspecified)
0 (no)

# lookup: test call for CC(C)OC(=O)C1=CN(C(=O)c2ccc(F)c(F)c2)CC(C)(C)c2c1[nH]c1ccccc21
0 (no)

Hi, do you know how COc1ccc(COc2cc3oc(=O)c4cc(C(C)O)ccc4c3cc2OC)cc1 (stereo unspecified) came out in this test?
1 (yes)

Query: recorded result category for COc1c(Cl)cc2c([nH]c3cnccc32)c1NC(=O)c1cccnc1C in this test
0 (no)

Could you please tell me the result logged for COc1ccc(-c2ccc3c(N4CCOCC4)nc(N4C[C@@H](C)O[C@@H](C)C4)nc3n2)cc1CO in this assay?
1 (yes)

Record lookup: outcome of this test for CNC(=O)c1ccccc1Sc1ccc2c(/C=C/c3ccccn3)n[nH]c2c1 ?
1 (yes)

Assay result, entry COc1cc(Nc2ncc3c(n2)-c2ccc(Cl)cc2C(c2c(F)cccc2OC)=NC3)ccc1C(=O)O — outcome?
1 (yes)

Could you check what this test reported for O=C(Nc1nc2ccccc2n1CCN1CCOCC1)c1cccc([N+](=O)[O-])c1 ?
0 (no)

Which outcome was assigned to COc1ccccc1[C@H](c1cccc2ccccc12)[C@@](C)(C#N)C(=O)N1CCC(c2cccc(C(F)(F)F)c2)CC1 in this test?
1 (yes)

Just curious, what result did O=C1CCCC2=C1C(c1[nH]ncc1Cl)N=C(Nc1nc3ccccc3o1)N2 (stereo unspecified) get here?
0 (no)

Entry O=c1n(CCCN2CCN(c3cccc(Cl)c3)CC2)nc2ccccn12 : call = ?
0 (no)

====

System: CP335
Test: qHTS profiling for inhibitors of Plasmodium falciparum proliferation (AID 504749); note: nearly all actives have a fitted effect of over 60% in size
Conditions: P. falciparum in erythrocytes, SYBR Green DNA, 72 h; series mostly up to 28.7 µM
Procedure: NIH National Institute of Allergy and Infectious Diseases [NIAID] NIH Chemical Genomics Center [NCGC] […] Because mature erythrocytes lack DNA, only Plasmodium-derived DNA is detected. NCGC Assay Protocol Summary: The SYBR Green viability assay was adapted from a method described previously (Plouffe et al., 2008). […] The following morning, fluorescence intensity at 485(14) nm excitation and 535(25) nm emission wavelengths was measured on an EnVision (Perkin Elmer) plate reader. […]
Records with an inconclusive call do not appear. The source made the active and inactive calls. Calls come from the whole dose curve; as a rule, active = well fitted inhibition curve with a large enough effect; inconclusive = small, poorly fitted or top-dose-only effect; inactive = flat fitted curve, though single readings scatter.
Form entry, call: pick from label 1 = active, label 0 = inactive

Here are 10 compounds together with their reported answers.
CC(C[N+](C)(C)C)OC(N)=O (stereo not drawn); label 0
NC[C@H](O)c1ccc(O)c(O)c1; label 0
NNCCc1ccccc1; label 0
CCc1ccc(CCOc2ccc(CC3SC(=O)NC3=O)cc2)nc1 (stereo not drawn); label 0
Oc1ccc(C2CNCCc3c2cc(O)c(O)c3Cl)cc1 (stereo not drawn); label 0
CC(=O)Oc1ccccc1C(=O)O; label 0
N[C@@H]1CONC1=O; label 0
NCCCC(N)(C(=O)O)C(F)F (stereo not drawn); label 0
NS(=O)(=O)c1cc2c(cc1Cl)NC=NS2(=O)=O; label 0
CC(C)C[C@H](NC(=O)[C@@H](O)[C@H](N)Cc1ccccc1)C(=O)O; label 1

Recorded test outcome, item Cc1c(C)c2c(c(C)c1O)CCC(C)(COc1ccc(CC3SC(=O)NC3=O)cc1)O2 (stereo not drawn)
label 0

Given O=C1CCC(N2C(=O)c3ccccc3C2=O)C(=O)N1 (stereo not drawn) , state the outcome it received in this test.
label 0

Hi, do you know how CN1CCN(CCCN2c3ccccc3Sc3ccc(C(F)(F)F)cc32)CC1 came out in this test?
label 1

====

experiment: Quantitative High-Throughput drug screen in 47 multiple myeloma cell lines against the NCATS MIPE library collection: KMS12PE_JCRB cell viability assay (AID 1918972); conditions: KMS12PE myeloma viability, CellTiter-Glo ATP, 48 h; series mostly up to 45.8 µM; note: nearly all actives have a fitted effect of over 30% in size;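 for viability: 100% = DMSO only wells and 0% = wells with media alone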
Inconclusive results are not listed. The source made the active and inactive calls. The call rests on the fitted dose curve; in most records, active means well fitted cell-killing curve with a large enough effect; inconclusive means small, poorly fitted or top-dose-only effect, or effect the other way; inactive means no such curve, though single readings can be large or run the other way.
Lab note: assign the record to one of active, inactive

CCOC(=O)N1CCC(=C2c3ccc(Cl)cc3CCc3cccnc32)CC1; inactive
Nc1nc2[nH]cc(CCc3ccc(C(=O)N[C@@H](CCC(=O)O)C(=O)O)cc3)c2c(=O)[nH]1; active
NNCCc1ccccc1; active
CCN(CC)CCCC(C)Nc1ccnc2cc(Cl)ccc12 (centres undefined); active
CCCCNc1cc(C(=O)O)cc(S(N)(=O)=O)c1Oc1ccccc1; inactive

Just curious, what result did COCC(=O)NCC=Cc1ccc2ncnc(Nc3ccc(Oc4ccc(C)nc4)c(C)c3)c2c1 get here?
active

Recorded call for CNC[C@H](O)c1cccc(O)c1 ?
inactive

Dear all, I need the recorded test outcome for COc1ccccc1-c1cccc(-c2c(O)c3cc(C#N)c(Cl)cc3[nH]c2=O)c1 , thank you.
active

Each compound tested received a call. Report the one for COCCNCCCn1c(C(=O)CF)c(-c2ccc(C)cc2)c2c(N)ncnc21 .
inactive

Field: outcome | Entry: CC[C@@H](C)[C@H](NC(=O)[C@H](CC1CCCCC1)NC(=O)c1ccno1)C(=O)N1CCC2(CCc3ccccc32)CC1
inactive

In this assay, the call recorded for NC(=O)C1CCCc2c1[nH]c1ccc(Cl)cc21 (centres undefined) was what?
active

Dear colleague, could you share the recorded outcome for Nc1nc2ccc(OC(F)(F)F)cc2s1 when you have a moment?
inactive

Lab log entry: CN1CCN(CCCN2c3ccccc3Sc3ccc(C(F)(F)F)cc32)CC1 — outcome as called in the assay?
inactive
